# tgt: D(2) dopamine receptor (Rattus norvegicus) (UniProt P61169)
# Sequence (P61169 whole entry): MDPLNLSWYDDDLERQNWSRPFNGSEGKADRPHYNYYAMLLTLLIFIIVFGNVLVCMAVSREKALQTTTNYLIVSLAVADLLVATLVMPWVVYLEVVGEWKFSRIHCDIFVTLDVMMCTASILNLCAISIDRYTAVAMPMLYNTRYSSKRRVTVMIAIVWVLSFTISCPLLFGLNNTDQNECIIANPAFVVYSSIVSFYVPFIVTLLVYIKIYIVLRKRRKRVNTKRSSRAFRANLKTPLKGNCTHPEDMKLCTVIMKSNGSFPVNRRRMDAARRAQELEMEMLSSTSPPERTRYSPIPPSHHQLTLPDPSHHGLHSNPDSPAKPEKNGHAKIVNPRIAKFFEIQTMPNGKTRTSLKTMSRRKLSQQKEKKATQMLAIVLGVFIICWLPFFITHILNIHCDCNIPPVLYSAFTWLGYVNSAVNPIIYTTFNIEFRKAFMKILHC
# test.method.notes: Displacement of [3H]spiperone from D2 receptor in Rattus norvegicus (rat) straitum membrane homogenates at 100 uM after 60 min by liquid scintillation counting analysis
outcome.measure: inhibition (%)

COc1nc2ccccc2nc1N1CCN(CCc2ccc(-c3csc(N)n3)cc2)CC1 = 24
Oc1nc(-c2ccc(CCN3CCN(c4cnc5ccccc5n4)CC3)cc2)cs1 = 0

P = CNc1nc(-c2ccc(CCN3CCN(c4cnc5ccccc5n4)CC3)cc2)cs1
Q = Nc1nc(-c2ccc(CCN3CCN(c4cnc5ccccc5n4)CC3)cc2)cs1
Param pair: P , Q . Output: the one whose inhibition is numerically greater. Label of pick, please.
Q

a = CNc1nc(-c2ccc(CCN3CCN(c4nc5ccccc5nc4Cl)CC3)cc2)c(C)s1
b = Cc1nc(-c2ccc(CCN3CCN(c4cnc5ccccc5n4)CC3)cc2)cs1
Param pair: a , b . Output: the one whose inhibition is numerically greater. Label of pick, please.
b
(b: 30%, a: 0%)

a = CNc1nc(-c2ccc(CCN3CCN(c4nc5ccccc5nc4Cl)CC3)cc2)cs1
b = COc1nc2ccccc2nc1N1CCN(CCc2ccc(-c3csc(C)n3)cc2)CC1
Of a and b , which carries the smaller reported inhibition figure? Label of pick, please.
a

====

# tgt: 5-hydroxytryptamine receptor 2A (Rattus norvegicus)
# test.method.notes: Displacement of [3H]ketanserin from 5-HT2A receptor in Rattus norvegicus (rat) cortex membrane homogenates at 10 uM after 90 min by liquid scintillation counting analysis
outcome.measure: inhibition (%)

Example compounds with recorded inhibition:
Cc1sc(N)nc1-c1ccc(CCN2CCN(c3nc4ccccc4nc3Cl)CC2)cc1 = 0
CNc1nc(-c2ccc(CCN3CCN(c4cnc5ccccc5n4)CC3)cc2)cs1 = 57
COc1nc2ccccc2nc1N1CCN(CCc2ccc(-c3csc(O)n3)cc2)CC1 = 28
Nc1nc(-c2ccc(CCN3CCN(c4nc5ccccc5nc4Cl)CC3)cc2)cs1 = 4
Cc1nc(-c2ccc(CCN3CCN(c4nc5ccccc5nc4Cl)CC3)cc2)cs1 = 30
Cc1nc(-c2ccc(CCN3CCN(c4nc5ccccc5nc4Cl)CC3)cc2)c(C)s1 = 31

P = Oc1nc(-c2ccc(CCN3CCN(c4cnc5ccccc5n4)CC3)cc2)cs1
Q = CNc1nc(-c2ccc(CCN3CCN(c4nc5ccccc5nc4Cl)CC3)cc2)cs1
Param pair: P , Q . Output: the one whose inhibition is numerically greater. Label of pick, please.
P

P = Oc1nc(-c2ccc(CCN3CCN(c4nc5ccccc5nc4Cl)CC3)cc2)cs1
Q = CNc1nc(-c2ccc(CCN3CCN(c4nc5ccccc5nc4OC)CC3)cc2)cs1
Param pair: P , Q . Output: the one whose inhibition is numerically greater. Label of pick, please.
Q

A = Cc1sc(N)nc1-c1ccc(CCN2CCN(c3cnc4ccccc4n3)CC2)cc1
B = CNc1nc(-c2ccc(CCN3CCN(c4nc5ccccc5nc4Cl)CC3)cc2)c(C)s1
Of A and B , which carries the smaller reported inhibition figure? Label of pick, please.
B
(B: 31%, A: 58%)

====

# System: Mus musculus
# test.method.notes: Antagonist activity at nigrostriatal dopaminergic D2 receptor in Swiss albino Mus musculus (mouse) assessed as maximum average cataleptic time at 10 mg/kg, ip after 1 to 5 hr relative to vehicle-treated control
# Type: organism-based
# Design: dose 10 mg/kg, route intraperitoneal
# cond: in vivo
outcome.measure: Time (s)
Output spec: scalar in s, unitless text.

COc1nc2ccccc2nc1N1CCN(CCc2ccc(-c3nc(C)sc3C)cc2)CC1 = 11.25
Cc1nc(-c2ccc(CCN3CCN(c4nc5ccccc5nc4Cl)CC3)cc2)cs1 = 3.25
COc1nc2ccccc2nc1N1CCN(CCc2ccc(-c3nc(N)sc3C)cc2)CC1 = 10.78
COc1nc2ccccc2nc1N1CCN(CCc2ccc(-c3csc(C)n3)cc2)CC1 = 6.25
CNc1nc(-c2ccc(CCN3CCN(c4nc5ccccc5nc4OC)CC3)cc2)cs1 = 10.67
Cc1sc(N)nc1-c1ccc(CCN2CCN(c3nc4ccccc4nc3Cl)CC2)cc1 = 23.5
Cc1nc(-c2ccc(CCN3CCN(c4cnc5ccccc5n4)CC3)cc2)c(C)s1 = 9.32
Nc1nc(-c2ccc(CCN3CCN(c4cnc5ccccc5n4)CC3)cc2)cs1 = 9.21
CNc1nc(-c2ccc(CCN3CCN(c4cnc5ccccc5n4)CC3)cc2)cs1 = 9.32
CNc1nc(-c2ccc(CCN3CCN(c4cnc5ccccc5n4)CC3)cc2)c(C)s1 = 3.88

Find the measured Time: item Cc1sc(N)nc1-c1ccc(CCN2CCN(c3cnc4ccccc4n3)CC2)cc1 , target or system Mus musculus.
2.64

Find the measured Time: item Oc1nc(-c2ccc(CCN3CCN(c4nc5ccccc5nc4Cl)CC3)cc2)cs1 , target or system Mus musculus.
28.25

Find the measured Time: item CNc1nc(-c2ccc(CCN3CCN(c4nc5ccccc5nc4OC)CC3)cc2)c(C)s1 , target or system Mus musculus.
3.12

Find the measured Time: item CNc1nc(-c2ccc(CCN3CCN(c4nc5ccccc5nc4Cl)CC3)cc2)c(C)s1 , target or system Mus musculus.
8.12

Find the measured Time: item Nc1nc(-c2ccc(CCN3CCN(c4nc5ccccc5nc4Cl)CC3)cc2)cs1 , target or system Mus musculus.
18.24

Find the measured Time: item COc1nc2ccccc2nc1N1CCN(CCc2ccc(-c3csc(O)n3)cc2)CC1 , target or system Mus musculus.
7.9

Find the measured Time: item Oc1nc(-c2ccc(CCN3CCN(c4cnc5ccccc5n4)CC3)cc2)cs1 , target or system Mus musculus.
3.19

Find the measured Time: item CNc1nc(-c2ccc(CCN3CCN(c4nc5ccccc5nc4Cl)CC3)cc2)cs1 , target or system Mus musculus.
3.96

====

# tgt: 5-hydroxytryptamine receptor 2A (Rattus norvegicus) (UniProt P14842)
# Sequence (P14842 whole entry): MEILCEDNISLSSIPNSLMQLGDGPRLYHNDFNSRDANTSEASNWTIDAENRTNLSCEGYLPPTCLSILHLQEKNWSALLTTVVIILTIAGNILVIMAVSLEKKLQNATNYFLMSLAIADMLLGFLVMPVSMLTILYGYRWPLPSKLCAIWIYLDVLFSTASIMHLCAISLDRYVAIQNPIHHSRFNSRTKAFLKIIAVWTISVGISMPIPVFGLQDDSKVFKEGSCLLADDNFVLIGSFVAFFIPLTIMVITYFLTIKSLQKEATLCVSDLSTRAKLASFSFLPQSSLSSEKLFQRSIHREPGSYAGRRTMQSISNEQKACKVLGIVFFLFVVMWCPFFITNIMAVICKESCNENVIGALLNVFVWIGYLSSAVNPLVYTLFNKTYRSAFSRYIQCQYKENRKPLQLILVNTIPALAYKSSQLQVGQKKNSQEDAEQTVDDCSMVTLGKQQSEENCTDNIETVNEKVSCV
# test.method.notes: Displacement of [3H]ketanserin from 5-HT2A receptor in Rattus norvegicus (rat) cortex membrane homogenates up to 1 uM after 90 min by liquid scintillation counting analysis
The source made the active and inactive calls. No cut-off for these calls is given here.
outcome.measure: inhibition

Example compounds with recorded inhibition:
CNc1nc(-c2ccc(CCN3CCN(c4nc5ccccc5nc4OC)CC3)cc2)cs1 = inactive
COc1nc2ccccc2nc1N1CCN(CCc2ccc(-c3csc(N)n3)cc2)CC1 = inactive
Cc1nc(-c2ccc(CCN3CCN(c4cnc5ccccc5n4)CC3)cc2)cs1 = inactive
Nc1nc(-c2ccc(CCN3CCN(c4cnc5ccccc5n4)CC3)cc2)cs1 = inactive
COc1nc2ccccc2nc1N1CCN(CCc2ccc(-c3nc(C)sc3C)cc2)CC1 = inactive
CNc1nc(-c2ccc(CCN3CCN(c4nc5ccccc5nc4OC)CC3)cc2)c(C)s1 = inactive
Cc1nc(-c2ccc(CCN3CCN(c4nc5ccccc5nc4Cl)CC3)cc2)cs1 = inactive
Cc1nc(-c2ccc(CCN3CCN(c4nc5ccccc5nc4Cl)CC3)cc2)c(C)s1 = inactive

Find the measured inhibition: item COc1nc2ccccc2nc1N1CCN(CCc2ccc(-c3csc(O)n3)cc2)CC1 , target or system 5-hydroxytryptamine receptor 2A (Rattus norvegicus) (UniProt P14842).
inactive

Find the measured inhibition: item CNc1nc(-c2ccc(CCN3CCN(c4cnc5ccccc5n4)CC3)cc2)cs1 , target or system 5-hydroxytryptamine receptor 2A (Rattus norvegicus) (UniProt P14842).
inactive

Find the measured inhibition: item CNc1nc(-c2ccc(CCN3CCN(c4nc5ccccc5nc4Cl)CC3)cc2)cs1 , target or system 5-hydroxytryptamine receptor 2A (Rattus norvegicus) (UniProt P14842).
inactive

====

Each entry below carries its reported inhibition in vivo at 10 mg/kg.
# System: Mus musculus
# test.method.notes: Antagonist activity at mesolimbic dopaminergic D2 receptor in Swiss albino Mus musculus (mouse) assessed as inhibition of apomorphine-induced cage climbing behavior at 10 mg/kg, ip administered 1 hr prior to apomorphine challenge measured after 30 min relative to vehicle-treated control
# Type: functional
# cond: route intraperitoneal
Output spec: scalar in %, unitless text.

Example molecules with recorded inhibition in vivo at 10 mg/kg:
CNc1nc(-c2ccc(CCN3CCN(c4nc5ccccc5nc4OC)CC3)cc2)cs1 = 65
CNc1nc(-c2ccc(CCN3CCN(c4nc5ccccc5nc4Cl)CC3)cc2)c(C)s1 = 70
Oc1nc(-c2ccc(CCN3CCN(c4nc5ccccc5nc4Cl)CC3)cc2)cs1 = 50
Cc1nc(-c2ccc(CCN3CCN(c4nc5ccccc5nc4Cl)CC3)cc2)c(C)s1 = 80
COc1nc2ccccc2nc1N1CCN(CCc2ccc(-c3nc(N)sc3C)cc2)CC1 = 65
Nc1nc(-c2ccc(CCN3CCN(c4cnc5ccccc5n4)CC3)cc2)cs1 = 65
Cc1nc(-c2ccc(CCN3CCN(c4cnc5ccccc5n4)CC3)cc2)cs1 = 85
CNc1nc(-c2ccc(CCN3CCN(c4nc5ccccc5nc4OC)CC3)cc2)c(C)s1 = 70

Continue with the molecule presented below.
I have this molecule here, CNc1nc(-c2ccc(CCN3CCN(c4cnc5ccccc5n4)CC3)cc2)cs1 , and I need its recorded inhibition in vivo at 10 mg/kg.
60
